# assay.system: T1, human TL1A extracellular domain with N-terminal HIS and FLAG tag (human, UniProt O95150 72-251)
# T1 construct: the whole entry is named; also called TNFSF15
# T1 sequence: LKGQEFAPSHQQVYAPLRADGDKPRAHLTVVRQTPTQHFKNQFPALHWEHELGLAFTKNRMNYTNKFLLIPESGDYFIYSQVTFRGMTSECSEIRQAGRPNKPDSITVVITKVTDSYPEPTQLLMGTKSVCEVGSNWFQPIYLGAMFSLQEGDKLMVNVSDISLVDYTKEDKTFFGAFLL
# test.method.notes: SPR Run 7, antibody on Protein A, TL1A 5 ug/mL, timepoint 220
parameter.measured: TL1A Binding Level (Late) (RU)
Dear colleague, please return just the value in RU, with no unit written.

Below are worked cases with known answers.
binder: 320-536 (antibody, human IgG1, name in Kabat numbering, V domains shown, full-length human IgG1, lambda) VH: QVQLVQSGAEVKKPGASVKVSCKASGYTFTSYDINWVRQAPGQGLEWMGWLNPNSKNTGYAQKFQGRVTMTADRSTSTAYMELSSLRSEDTAVYYCAREVPETAAFEYWGQGTLVTVSS VL: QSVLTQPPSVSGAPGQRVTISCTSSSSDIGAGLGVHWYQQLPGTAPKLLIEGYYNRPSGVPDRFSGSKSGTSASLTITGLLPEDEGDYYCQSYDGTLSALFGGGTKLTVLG
observed.measurement: 105
--
binder: 320-494 (antibody, human IgG1, name in Kabat numbering, V domains shown, full-length human IgG1, lambda) VH: QVQLVQSGAEVKKPGASVKVSCKASGYTFTSYDINWVRQAPGQGLEWMGWHNPNSGNTGYAQKFQGRVTMTADRSTSTAYMELSSLRSEDTAVYYCAREVPETAAFEYWGQGTLVTVSS VL: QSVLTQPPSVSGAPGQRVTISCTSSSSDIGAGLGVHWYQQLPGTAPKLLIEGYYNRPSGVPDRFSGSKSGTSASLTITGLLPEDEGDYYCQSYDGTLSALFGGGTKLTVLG
observed.measurement: 138
--
binder: 320-560 (antibody, human IgG1, name in Kabat numbering, V domains shown, full-length human IgG1, lambda) VH: QVQLVQSGAEVKKPGASVKVSCKASGYTFTSYDINWVRQAPGQGLEWMGWLNPNSGNTDYAQKFQGRVTMTADRSTSTAYMELSSLRSEDTAVYYCAREVPETAAFEYWGQGTLVTVSS VL: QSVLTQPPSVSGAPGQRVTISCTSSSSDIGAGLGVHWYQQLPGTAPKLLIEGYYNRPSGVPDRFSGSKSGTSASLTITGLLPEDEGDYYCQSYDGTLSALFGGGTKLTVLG
observed.measurement: 9
--
binder: 320-556 (antibody, human IgG1, name in Kabat numbering, V domains shown, full-length human IgG1, lambda) VH: QVQLVQSGAEVKKPGASVKVSCKASGYTFTSYDINWVRQAPGQGLEWMGWLNPNSGNYGYAQKFQGRVTMTADRSTSTAYMELSSLRSEDTAVYYCAREVPETAAFEYWGQGTLVTVSS VL: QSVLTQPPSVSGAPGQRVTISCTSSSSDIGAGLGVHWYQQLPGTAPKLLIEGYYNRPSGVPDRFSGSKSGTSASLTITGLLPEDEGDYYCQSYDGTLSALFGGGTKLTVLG
observed.measurement: 90

Next up:
QUERY: Using the record for 320-526 (antibody, human IgG1, name in Kabat numbering, V domains shown, full-length human IgG1, lambda) VH: QVQLVQSGAEVKKPGASVKVSCKASGYTFTSYDINWVRQAPGQGLEWMGWLNPNHGNTGYAQKFQGRVTMTADRSTSTAYMELSSLRSEDTAVYYCAREVPETAAFEYWGQGTLVTVSS VL: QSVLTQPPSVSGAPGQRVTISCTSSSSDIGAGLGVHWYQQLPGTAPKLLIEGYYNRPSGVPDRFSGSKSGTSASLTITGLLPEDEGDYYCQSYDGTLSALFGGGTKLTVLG , report its TL1A Binding Level (Late).
RESULT: 124
